assay: inhibition of 3D7 malaria parasite growth – strain 3D7 (AID 2306);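 also: 0% = DMSO wells and 100% = chloroquine plus artemisinin control wells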; conditions: P. falciparum 3D7 erythrocytic growth, LDH absorbance, 72 h; at 2 µM; active compounds read high
quantityName: growth inhibition (%)
Give a bare numeral; the unit % is implied.

O=C(Nc1ccc(Br)cc1)N(CCN1CCOCC1)CC(O)COc1ccc(Cl)c(F)c1 (stereo not given)    98

Would you mind telling me what growth inhibition value was observed for "Nc1nc(N)c2c(ccc3nn(Cc4cccnc4)cc32)n1" ?
96

Entry under review: "Cc1noc(-c2ccc(O)cc2O)c1-c1ccc2c(c1)OCCCO2" . Reported growth inhibition?
100

For the compound "Cc1nc(-c2cccc3c(NC(=O)N4CCc5cc6nccc(N7CCN(C)CC7)c6cc54)cccc23)no1" , what growth inhibition is on record?
100

I'd like to know its growth inhibition. The compound in question is Cc1cccc2[nH]c(-c3ccc(-c4cccc(C(=O)N5CCCCC5C(C)O)c4)s3)nc12 (stereo not given)
101

###

The following compounds are listed with their measured inhibition values.
assay: HepG2 cytotoxicity, primary screen, cytotoxicity control for P. falciparum antimalarial project, cell-based, ATP luminescence (AID 2303); conditions: HepG2 viability, 24-48 h, at 10 µM, active compounds read high;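 also: 0% = DMSO wells and 100% = digitonin-killed cells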
Field: numeric (%). Do not append units.

Consider the worked cases shown below.
Fc1ccc(OC2CN(c3nccc(NCc4ccccc4Cl)n3)C2)cc1    -2
COc1ccc(-n2ccnc2SCC(=O)Nc2cccc(C(F)(F)F)c2)c(OC)c1    -10
Cc1cc(C(=O)CN2C(=O)NC3(CCCc4ccccc43)C2=O)c(C)n1Cc1ccc(F)cc1 (stereo not given)    4
Cc1[nH]c(C)c(-c2ccc(Oc3ccc(Cl)cc3Cl)cc2)c(=O)c1Br    3
COc1ccc(NC(=O)/C=C/c2ccccc2Cl)cc1OCCN1CCC(NCc2ccccc2)CC1    28

Requested field: inhibition. Item: "O=C(Nc1ccccc1)N(Cc1ccccc1-c1cccc(CNC2CCCC2)c1)C1CCN(Cc2ccccc2)CC1"
36

Would you mind telling me what inhibition value was observed for "c1cc(CN2CCCCC2)cc(-c2ccc(-c3nc4ccccc4[nH]3)cc2)c1" ?
9

GET /values?readout=inhibition&item= "CC(=O)Nc1sc(C)c(C)c1CN1CCc2ccccc2C1"
-8

Value lookup for inhibition; key = CC(NCC(O)Cn1c2ccccc2c2ccccc21)c1ccccc1 (stereo not given)
37

So what's the measured inhibition for this one? "NC(=O)c1cc2nc(NC3CCC3)nc(Nc3cccc4[nH]ncc34)c2[nH]1"
9

###

target: Calcium-dependent protein kinase 1 (Plasmodium falciparum (isolate 3D7)); assay: PfCDPK1 kinase inhibitors, biochemical, TCAMS library (AID 1159585); conditions: recombinant PfCDPK1, Kinase-Glo ATP depletion luminescence;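 also: inhibitors leave more ATP so luminescence rises with inhibition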
Results with a measured potency or affinity are listed apart. Calls of active or inactive are those of the source. The limit is not given here; nearly all actives have IC50 up to about 0.98 µM.
quantityName: outcome

Past entries and their recorded results:
O=C(Cc1cnc[nH]1)Nc1ccc(-c2ccc(-c3nc4ccccc4[nH]3)s2)cc1    inactive
CCCNC(=O)Nc1cc2cc(-c3ccc(CN4CCCC4)cc3)ccc2n2c(C)nnc12    inactive
O=c1ccc(CNc2nc(NCCc3ccccc3)nc3ccc(Cl)cc23)c[nH]1    inactive
CN(C)CCOc1ccc2[nH]c(-c3cccc(OCc4ccccc4)c3)nc2c1C#N    inactive
CC(C)N1CCC(N(Cc2ccc(-c3ccc(C(F)(F)F)cc3)cc2)C(=O)Cn2c(SCc3cccc(F)c3F)nc(=O)c3ccccc32)CC1    inactive

Would you mind telling me what outcome value was observed for "Cc1nc(C)c(CC(=O)Nc2ccc(-c3cccc(-c4nc5ccc(C(F)(F)F)cc5[nH]4)c3)cc2)s1" ?
inactive

What value of measured outcome is listed for "CC(=O)Nc1ccc(C(=O)NC2CCN(c3ccnc4cc(Cl)ccc34)CC2)cc1" ?
inactive

Quick one: outcome for "O=C(c1cc(C(=O)Nc2ccccc2)c(=O)n(-c2ccccc2)c1)c1cc(Cl)ccc1O" ?
inactive

# outcome lookup, item "C[C@H]1CN(Cc2cccc(-c3cc(CNC(=O)c4cccc(CN5CCN(C/C=C/c6ccccc6)CC5)c4)ccc3F)c2)CCN1"
inactive

Could you share which outcome value was measured for "COc1ccc2nccc([C@@H](O)CN3CCC(NCCOc4ccc(F)cc4F)CC3)c2c1" ?
inactive

Using the record for CCCCCCOc1ccc(C(=O)NCCCC2CCCN(CCCCCNC(=O)C=Cc3ccc(Cl)c(Cl)c3)C2)cc1 (stereo not drawn) , report its outcome.
inactive

Fill in: outcome of "Brc1ccsc1-c1nc(NCCC(c2ccccc2)c2ccccc2)no1" is ___
inactive

For the molecule shown here, COc1ccc(CC(=O)NC(CCN2CCC3(CC2)CN(S(C)(=O)=O)c2ccccc23)c2ccc(Cl)c(Cl)c2)cc1OC (stereo not drawn) , give the reported outcome.
inactive

Which outcome is reported for this molecule? "COC(=O)c1cccc(CNCc2cccc(-c3csc(-c4nc5ccccc5[nH]4)c3)c2)c1"
inactive

Can you share its outcome? I mean this molecule: "CC(=O)Nc1ncc(C(=O)Nc2cccc(-c3cccc(-c4nc5ccc(F)cc5[nH]4)c3)c2)s1"
inactive

# get_value(readout='outcome', item= CCC(C)NS(=O)(=O)c1ccc2nc(Nc3ccc(C)cc3)n(C3CCCCC3C)c2c1 (stereo not drawn) )
inactive

Consider the molecule shown here: "CN(CCCCCNC(=O)/C=C/c1ccc(Cl)c(Cl)c1)CCCCc1c[nH]c2ccccc12" What is its recorded outcome?
inactive

Name the reported outcome value associated with the molecule "COc1cc2nccc(Nc3ccc4c(cnn4Cc4cccc(F)c4)c3)c2cc1OC"
inactive
